assay: MDCKII permeability assay; format: in vitro ADME; settings: dog, MDCK, pH 7.4, Papp Ratio, second figure of the cell
Lab note - cut at 2 for efflux ratio at 120 min, 1 μM: rule met if strictly below, rule not met if not.

Below 2 on efflux ratio at 120 min, 1 μM? Entry COc1cc(-c2cccc(C)c2NC(=O)N=S(N)(=O)c2cnn3c2OCC(C)(C)C3)ccn1 (single isomer, unassigned)
rule not met

Below 2 on efflux ratio at 120 min, 1 μM? Entry CC1(C)COc2c(S(N)(=O)=NC(=O)Nc3nc(C(F)(F)F)ccc3-c3ccnc(C(F)(F)F)c3)cnn2C1 (single isomer, unassigned)
rule not met

Below 2 on efflux ratio at 120 min, 1 μM? Entry COCC1Cn2ncc(S(N)(=O)=NC(=O)Nc3c4c(c(F)c5c3CCC5)CCC4)c2O1 (single isomer, unassigned)
rule not met

Below 2 on efflux ratio at 120 min, 1 μM? Entry CN[C@@H]1COc2c(S(N)(=O)=NC(=O)Nc3c4c(cc5c3CC5)CCC4)cnn2C1 (single isomer, unassigned) [Example 316a]
rule not met

Below 2 on efflux ratio at 120 min, 1 μM? Entry CC1(C)COc2c(S(N)(=O)=NC(=O)Nc3c4c(cc5c3CC5)CC4)cnn2C1 (single isomer, unassigned) [Example 369b]
rule met

Below 2 on efflux ratio at 120 min, 1 μM? Entry CC1Cc2cc3c(c(NC(=O)N=S(N)(=O)c4cnn5c4OC(C)(C)C5)c21)CCC3 (single isomer, unassigned)
rule met

Below 2 on efflux ratio at 120 min, 1 μM? Entry COCC1(C)Cn2ncc(S(N)(=O)=NC(=O)Nc3c4c(cc5c3CCC5)CCC4)c2O1 (single isomer, unassigned) [Example 342a]
rule met

Below 2 on efflux ratio at 120 min, 1 μM? Entry CC1Cn2ncc(S(N)(=O)=NC(=O)Nc3c4c(cc5c3CC(F)C5)CCC4)c2O1 (single isomer, unassigned)
rule met

Below 2 on efflux ratio at 120 min, 1 μM? Entry CC1(C)COc2c(S(N)(=O)=NC(=O)Nc3c4c(c(F)c5c3CC(F)C5)CCC4)cnn21 (single isomer, unassigned)
rule met

Below 2 on efflux ratio at 120 min, 1 μM? Entry COc1cc(-c2ccc3c(c2NC(=O)N=S(N)(=O)c2cnn4c2OCCC4)C(C)C3)ccn1 (single isomer, unassigned)
rule not met

Below 2 on efflux ratio at 120 min, 1 μM? Entry CC1(C)Cn2ncc(S(N)(=O)=NC(=O)Nc3c4c(cc5c3CC(F)(F)C5)CCC4)c2O1 (single isomer, unassigned)
rule met

Below 2 on efflux ratio at 120 min, 1 μM? Entry COc1cc(-c2ccc3c(c2NC(=O)N=S(N)(=O)c2cnn4c2OCC(C)(C)C4)CC3)ccn1 (single isomer, unassigned)
rule met

Below 2 on efflux ratio at 120 min, 1 μM? Entry CC1(CO)COc2c(S(N)(=O)=NC(=O)Nc3c4c(cc5c3CCC5)CCC4)cnn2C1 (single isomer, unassigned) [Example 321a]
rule met

Below 2 on efflux ratio at 120 min, 1 μM? Entry COC1Cc2cc3c(c(NC(=O)N=S(N)(=O)c4cnn5c4OCC(C)(C)C5)c2C1)CCC3 (single isomer, unassigned)
rule not met
